B1: FUNDC2 (parent)
chain: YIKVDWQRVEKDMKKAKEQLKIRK

- Variants of: B1
- assay summary: protein stability index of a GFP-peptide fusion (GPS, HEK-293T) (PSI 1-6); higher = more stable;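 further: lentivirally expressed fusions sorted by FACS into six bins by GFP to DsRed ratio, PSI derived from sequencing read proportions per bin multiplied by bin number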
- study conditions: c terminus: a fixed tail appended
The entries below are paired with their reported protein stability index.
# respond with the number and nothing more

As a guide, the following entries are already answered.
variant key: V9K
protein stability index: 2.45
//
variant key: D5M
protein stability index: 2.46
//
variant key: M13F
protein stability index: 1.79
//
variant key: K21F
protein stability index: 1.69
//
variant key: K14E
protein stability index: 1.42

Summary for this variant, "M13V" : protein stability index is 1.95

Summary for this variant, "K24E" : protein stability index is 2.03

Summary for this variant, "Q19C" : protein stability index is 1.43
